# testTarget: Adrenergic β2 (Homo sapiens, UniProt P07550)
# Construct: Adherent H292 cells were removed from tissue culture flasks; endogenous in cells; host or cells: H292 cells
# Sequence (P07550 whole entry): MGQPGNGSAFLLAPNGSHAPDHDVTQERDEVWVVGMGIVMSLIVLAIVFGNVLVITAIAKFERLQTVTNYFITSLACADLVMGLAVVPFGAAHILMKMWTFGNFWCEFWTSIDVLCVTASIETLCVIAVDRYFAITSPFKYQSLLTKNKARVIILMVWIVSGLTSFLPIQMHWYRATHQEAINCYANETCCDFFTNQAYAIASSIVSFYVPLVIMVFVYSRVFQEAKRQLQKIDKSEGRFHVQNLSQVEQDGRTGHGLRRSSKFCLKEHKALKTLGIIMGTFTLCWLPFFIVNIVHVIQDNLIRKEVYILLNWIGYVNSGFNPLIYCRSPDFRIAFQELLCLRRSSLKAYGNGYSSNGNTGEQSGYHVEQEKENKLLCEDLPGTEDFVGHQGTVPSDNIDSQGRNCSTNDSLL
# method: Adrenergic β2 mediated cAMP production in H292 cells (AlphaScreen cAMP detection)
# Format: cell-based
# testParameters: cAMP production, 60 minutes at room temperature, 300 μM rolipram, read-out: β2 pEC50 (converted)
Where a name gives a salt, the structure may show the parent alone.
Our labelling divides records by EC50 into ranges: range 1 = under 3 nM, range 2 = from 3 nM up to 8 nM, range 3 = 8 nM and over

Known results for molecules:
Cc1ccc(F)c(CCNCCC(=O)N(CCNCCc2ccc(O)c3c2OCC(=O)N3)C2CCCCC2)c1 [Example 33, bis(trifluoroacetate)] | range 1
O=C1COc2c(CCNCCN(C(=O)CCNCCc3cccc(F)c3)C3CCCCCC3)ccc(O)c2N1 [Example 69, bis(trifluoroacetate)] | range 1
O=C1COc2c(CCNCCN(C(=O)CCNCCc3ccc(F)c(F)c3)C3CCCCCC3)ccc(O)c2N1 [Example 67, bis(trifluoroacetate)] | range 2
O=C1COc2c(CCNCCN(C(=O)CCNCCc3ccc(Cl)c(Cl)c3)C3CCCCC3)ccc(O)c2N1 [Example 30, bis(trifluoroacetate)] | range 2
CC(C)[C@@H](C)N(CCNCCc1ccc(O)c2c1OCC(=O)N2)C(=O)CCNCCc1ccc(Cl)c(Cl)c1 [Example 59, dihydrochloride] | range 2
CCCC[C@@H](C)N(CCNCCc1ccc(O)c2c1OCC(=O)N2)C(=O)CCNCCc1cccc(Cl)c1 [Example 44, bis(trifluoroacetate)] | range 1
CCOc1cccc(CCNCCC(=O)N(CCNCCc2ccc(O)c3[nH]c(=O)ccc23)C2CCCCCC2)c1 [Example 11, bis(trifluoroacetate)] | range 3
O=C(CCNCCc1ccccc1)N(CCNCCc1ccc(O)c(O)c1)C1CCCCC1 [Example 22, bis(trifluoroacetate)] | range 3

The entry to classify is "O=C(CCNCCc1cccc(F)c1F)N(CCNCCc1ccc(O)c2[nH]c(=O)ccc12)C1CCCCC1" ; which class holds it?
range 3

The entry to classify is O=C1COc2c(CCNCCN(C(=O)CCNCCc3cc(Cl)ccc3F)C3CCCCC3)ccc(O)c2N1 [Example 34, bis(trifluoroacetate)] ; which class holds it?
range 1

The entry to classify is Cc1cc(CCNCCC(=O)N(CCNCCc2ccc(O)c3c2OCC(=O)N3)C2CCCCCC2)ccc1F [Example 62, bis(trifluoroacetate)] ; which class holds it?
range 2

The entry to classify is "O=CNc1cc(CCNCCN(C(=O)CCNCCc2ccccc2)C2CCCCC2)ccc1O" ; which class holds it?
range 3

* * *

# testTarget: Adrenergic β2 (Homo sapiens)
# Construct: Adherent H292 cells were removed from tissue culture flasks; endogenous in cells; host or cells: H292 cells
# method: Adrenergic β2 mediated cAMP production in H292 cells (AlphaScreen cAMP detection)
# Format: cell-based
# Parameters: key: fraction of formoterol maximum activity (formoterol = 1)
# testParameters: Intrinsic Activity as a fraction relative to the maximum activity determined for formoterol
# Method: Adrenergic β2 Mediated cAMP Production H292 cells were grown in 225 cm2 flasks incubator at 37° C., 5% CO2 in RPMI medium containing, 10% (v/v) FBS (foetal bovine serum) and 2 mM L-glutamine. […] The concentration of cAMP (cyclic adenosine monophosphate) in the cell lysate was determined using AlphaScreen™ methodology. […] Intrinsic Activity was expressed as a fraction relative to the maximum activity determined for formoterol in each experiment.
measuredParameter: β2 Int Act
Response field accepts a number only; no unit should be typed.

Answered examples (2):
O=C(CCNCCc1cc(F)ccc1F)N(CCNCCc1ccc(O)c2[nH]c(=O)ccc12)C1CCCCC1 [Example 17, bis(trifluoroacetate)] | 0.93
Cc1cc(CCNCCC(=O)N(CCNCCc2ccc(O)c3c2OCC(=O)N3)C2CCCCC2)ccc1F [Example 40, bis(trifluoroacetate)] | 0.96

Continue with the next compound.
Summary: CCCC[C@@H](C)N(CCNCCc1ccc(O)c2c1OCC(=O)N2)C(=O)CCNCCc1ccc(Cl)cc1 [Example 45, bis(trifluoroacetate)] , Adrenergic β2 (Homo sapiens), β2 Int Act = 0.89
